Target: T1, TRBP-dsRBD1 (UniProt Q15633-2 9-85)
T1 sequence: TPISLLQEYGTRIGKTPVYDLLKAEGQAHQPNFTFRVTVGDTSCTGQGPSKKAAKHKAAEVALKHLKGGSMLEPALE
Experiment: EMSA; apparent Kd; nH 1.0; 50 mM sodium cacodylate pH 7.0, 50 mM potassium glutamate, 5% glycerol; EMSA 0.5 pM RNA, 30 min at room temperature, gel 0.25X TBE at 10 C; CD at 10 C with 5-15 uM RNA
Conditions: protein: recombinant; label: 5'-32P; hairpin, 16 bp stem, U6 loop
Experimental endpoint: Kd (µM)
Note: unit µM is implicit; provide only the numeric part.

Entry GUCAGCAGUGCCUUAGUUUUUUCUAAGGCACUGCUGAC (structured_RNA) [ds16-hexa-U] , Kd reported as 10
